The values you see were collected from patent US20110077248A1.

target-under-test: SIRT1 (Homo sapiens)
Construct: His-tag (N); made in house; host or cells: E. coli BL21(DE3), T7-promoter vector
Sequence (Q96EB6 whole entry): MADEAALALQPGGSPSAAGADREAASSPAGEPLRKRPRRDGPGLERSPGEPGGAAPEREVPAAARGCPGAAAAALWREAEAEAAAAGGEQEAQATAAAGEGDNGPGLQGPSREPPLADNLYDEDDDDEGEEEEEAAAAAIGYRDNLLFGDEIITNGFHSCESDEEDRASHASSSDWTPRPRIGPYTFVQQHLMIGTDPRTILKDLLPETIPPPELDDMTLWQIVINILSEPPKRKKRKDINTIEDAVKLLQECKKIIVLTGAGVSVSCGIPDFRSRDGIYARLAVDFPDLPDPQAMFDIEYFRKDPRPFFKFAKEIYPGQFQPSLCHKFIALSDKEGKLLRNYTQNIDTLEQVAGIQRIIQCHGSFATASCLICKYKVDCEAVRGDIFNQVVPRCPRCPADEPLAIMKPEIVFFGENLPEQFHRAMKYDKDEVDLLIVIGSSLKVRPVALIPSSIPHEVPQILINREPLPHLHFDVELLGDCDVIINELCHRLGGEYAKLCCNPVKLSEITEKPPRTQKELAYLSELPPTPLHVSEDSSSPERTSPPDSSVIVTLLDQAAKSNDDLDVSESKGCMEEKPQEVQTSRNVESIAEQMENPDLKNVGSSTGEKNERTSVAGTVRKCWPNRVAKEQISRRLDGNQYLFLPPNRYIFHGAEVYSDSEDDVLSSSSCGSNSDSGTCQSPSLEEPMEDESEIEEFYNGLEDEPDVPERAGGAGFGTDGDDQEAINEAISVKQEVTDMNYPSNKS
experiment: Mass spectrometry based assay for modulators of SIRT1 activity (deacetylation of p53-based acetylated peptide)
Assay type: biochemical
applied-conditions: concentration of test compound that results in 150% activation of SIRT1; 0.5 μM peptide substrate, 120 μM βNAD+, 10 nM SIRT1, 25 min, 25° C.
measured-property: EC1.5

O=C(Nc1nc(CN2CCOCC2)cs1)c1cccn2cc(-c3cccc(Cl)c3)nc12 :: A (EC1.5<1.0 uM)
O=C(Nc1cccc(CN2CCOCC2)n1)c1cccn2cc(-c3ccc(F)c(Cl)c3)nc12 :: A (EC1.5<1.0 uM)
O=C(Nc1ccccn1)c1cccn2cc(-c3cccc(CN4CCOCC4)c3)nc12 :: A (EC1.5<1.0 uM)

----------
target-under-test: SIRT1 (Homo sapiens)
Construct: His-tag (N); made in house; host or cells: E. coli BL21(DE3), T7-promoter vector
experiment: Mass spectrometry based assay for modulators of SIRT1 activity (deacetylation of p53-based acetylated peptide)
Format: biochemical
applied-conditions: percent maximum fold activation of SIRT1
Collected Emax values appear next to each entry.

Sample answers from the record:
O=C(Nc1nc(CN2CCOCC2)cs1)c1cccn2cc(-c3cccc(C(F)F)c3)nc12 :: > 200%
O=C(Nc1ccccn1)c1cccn2cc(-c3cccc(CN4CCOCC4)c3)nc12 :: > 200%
O=C(Nc1nccs1)c1cccn2cc(-c3ccc(F)cc3)nc12 :: < 200%
O=C(Nc1ccccn1)c1cccn2cc(-c3ccccc3C(F)(F)F)nc12 :: > 200%
O=C(Nc1nc(CN2CCOCC2)cs1)c1cccn2cc(-c3ccc(F)cc3F)nc12 :: < 200%

Here is another compound to look at.
Emax of O=C(Nc1cccn2cc(-c3cccc(C(F)(F)F)c3)nc12)c1cnccn1 , assay on SIRT1 (Homo sapiens), is < 200%

----------
target-under-test: SIRT1 (Homo sapiens)
Construct: His-tag (N); made in house; host or cells: E. coli BL21(DE3), T7-promoter vector
experiment: Mass spectrometry based assay for modulators of SIRT1 activity (deacetylation of p53-based acetylated peptide)
Format: biochemical
applied-conditions: concentration of test compound that results in 150% activation of SIRT1; 0.5 μM peptide substrate, 120 μM βNAD+, 10 nM SIRT1, 25 min, 25° C.
Description: A mass spectrometry based assay was used to identify modulators of SIRT1 activity. The mass spectrometry based assay utilizes a peptide having 20 amino acid residues as follows: Ac-EE-K(biotin)-GQSTSSHSK(Ac)NleSTEG-K(5TMRi)-EE-NH2 (SEQ ID NO: 1) wherein K(Ac) is an acetylated lysine residue and Nle is a norleucine. The peptide is labeled with the fluorophore 5TMR (excitation 540 nm/emission 580 nm) at the C-terminus. The sequence of the peptide substrate is based on p53 with several modifications. […]
measured-property: EC1.5

Cc1ccc(-c2nc3c(C(=O)Nc4ccccn4)cccn3n2)cn1 :: C (EC1.5>25 uM)
Cc1cc(-c2nc3c(C(=O)Nc4nc(CN5CCOCC5)cs4)cccn3n2)ccn1 :: B (EC1.5 1-25 uM)
O=C(Nc1nccs1)c1cccn2cc(-c3ccccc3C(F)(F)F)nc12 :: C (EC1.5>25 uM)
O=C(Nc1nccs1)c1nccn2cc(-c3ccccc3OC(F)(F)F)nc12 :: B (EC1.5 1-25 uM)
